The following compounds are shown together with reported hERG current change (%, negative = inhibition) at 1uM values.
Biological target: human ether-à-go-go-related gene (hERG) potassium channel (human, UniProt Q12809)
Sequence (Q12809 whole entry, looked up): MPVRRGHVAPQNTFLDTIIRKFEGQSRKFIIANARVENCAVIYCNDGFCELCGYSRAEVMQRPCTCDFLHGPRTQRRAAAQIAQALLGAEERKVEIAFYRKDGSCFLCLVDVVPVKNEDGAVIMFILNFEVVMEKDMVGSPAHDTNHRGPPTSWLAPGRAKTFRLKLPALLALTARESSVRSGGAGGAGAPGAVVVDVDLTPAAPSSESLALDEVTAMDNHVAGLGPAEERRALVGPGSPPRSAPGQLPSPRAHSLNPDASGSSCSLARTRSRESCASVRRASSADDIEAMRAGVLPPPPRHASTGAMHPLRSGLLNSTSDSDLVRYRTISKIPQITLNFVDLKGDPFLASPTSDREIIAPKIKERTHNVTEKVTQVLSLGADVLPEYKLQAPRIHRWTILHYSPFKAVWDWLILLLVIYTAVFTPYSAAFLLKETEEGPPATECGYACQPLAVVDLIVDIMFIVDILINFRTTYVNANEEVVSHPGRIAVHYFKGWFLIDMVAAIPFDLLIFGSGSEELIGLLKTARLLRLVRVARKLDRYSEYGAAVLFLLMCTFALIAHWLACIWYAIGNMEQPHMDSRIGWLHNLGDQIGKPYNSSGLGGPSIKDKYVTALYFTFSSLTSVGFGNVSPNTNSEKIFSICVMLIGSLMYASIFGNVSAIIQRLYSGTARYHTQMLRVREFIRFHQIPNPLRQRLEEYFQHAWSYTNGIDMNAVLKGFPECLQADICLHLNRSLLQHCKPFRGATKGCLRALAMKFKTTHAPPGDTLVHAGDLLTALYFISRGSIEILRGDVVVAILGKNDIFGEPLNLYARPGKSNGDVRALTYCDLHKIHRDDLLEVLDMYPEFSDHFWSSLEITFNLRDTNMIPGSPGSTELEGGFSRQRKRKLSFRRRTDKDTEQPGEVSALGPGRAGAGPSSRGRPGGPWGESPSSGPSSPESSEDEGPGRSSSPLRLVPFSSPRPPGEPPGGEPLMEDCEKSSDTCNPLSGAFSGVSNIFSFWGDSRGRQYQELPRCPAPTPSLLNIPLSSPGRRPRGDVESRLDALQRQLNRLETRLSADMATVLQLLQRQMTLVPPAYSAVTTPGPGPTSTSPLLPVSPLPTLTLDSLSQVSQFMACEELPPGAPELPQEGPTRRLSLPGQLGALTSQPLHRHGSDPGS
Experiment: primary screen, population patch clamp on CHO cells stably expressing hERG; higher = less effect of the substance
Among all 310,000 compounds or so, about 2,200 (0.71%) showed an effect of 50% or more. Effects have a minus sign here. Many of the other results were omitted from the sample, so strong results are more common in it than they were.
Report as a plain number; the unit % is understood.

{"compound": "Cc1nc2nc(N)nn2c(C)c1C/C=C/c1ccccc1", "study-target": "human ether-à-go-go-related gene (hERG) potassium channel (human, UniProt Q12809)", "measure-unit": "%", "numeric-readout": 2.83}
{"compound": "CC(=O)CCC(=O)NCCc1ccccc1F", "study-target": "human ether-à-go-go-related gene (hERG) potassium channel (human, UniProt Q12809)", "measure-unit": "%", "numeric-readout": 5.68}
{"compound": "COc1ccccc1C(C)Nc1nc(-c2cccnc2)nc2ccccc12 (stereo not drawn)", "study-target": "human ether-à-go-go-related gene (hERG) potassium channel (human, UniProt Q12809)", "measure-unit": "%", "numeric-readout": 12.2}
{"compound": "CCN1C(=C(C#N)C#N)C=Cc2ccccc21", "study-target": "human ether-à-go-go-related gene (hERG) potassium channel (human, UniProt Q12809)", "measure-unit": "%", "numeric-readout": 15.9}
{"compound": "COc1cccc(CN2CCCC(C(=O)Nc3ccc(-c4cscn4)cc3)C2)c1 (stereo not drawn)", "study-target": "human ether-à-go-go-related gene (hERG) potassium channel (human, UniProt Q12809)", "measure-unit": "%", "numeric-readout": -10.8}
{"compound": "Oc1[nH]c2ccc(Br)cc2c1N=NC(=S)N1CCOCC1", "study-target": "human ether-à-go-go-related gene (hERG) potassium channel (human, UniProt Q12809)", "measure-unit": "%", "numeric-readout": 17.6}

Prompt: Tell me reported hERG current change (%, negative = inhibition) at 1uM for OCCC1CN(C2CCC2)CCN1Cc1ccc(F)c(F)c1 (stereo not drawn) , tested with human ether-à-go-go-related gene (hERG) potassium channel (human, UniProt Q12809).
Completion: 12.1

Prompt: For the record CC[N+](CC)(CC)CC(=O)Nc1ccc(SC(F)F)cc1.[Cl-] , what value of hERG current change (%, negative = inhibition) at 1uM is listed for human ether-à-go-go-related gene (hERG) potassium channel (human, UniProt Q12809)?
Completion: 27.1

Prompt: Param readout= hERG current change (%, negative = inhibition) at 1uM; system= human ether-à-go-go-related gene (hERG) potassium channel (human, UniProt Q12809); entry= Cc1cccn2c(=O)c3cc(C(=O)NCC4CCCO4)c(=N)n(CCN4CCOCC4)c3nc12 (stereo not drawn) ; returns value.
Completion: -50.1

Prompt: Observed hERG current change (%, negative = inhibition) at 1uM on human ether-à-go-go-related gene (hERG) potassium channel (human, UniProt Q12809) for Cc1cccc(N2CCN(C(=O)c3ccc4nc(N5CCCCC5)sc4c3)CC2)c1C , please.
Completion: 8.76

Prompt: Param readout= hERG current change (%, negative = inhibition) at 1uM; system= human ether-à-go-go-related gene (hERG) potassium channel (human, UniProt Q12809); entry= C=CC[n+]1c(/C=C2\C=Cc3cc(C)ccc3N2CC)ccc2ccccc21.[Br-] ; returns value.
Completion: -92.1
